The reported numbers originate from patent US9718790B2.

# systemName: human P2X3 receptor (Homo sapiens (Human), UniProt P56373)
# Sequence (P56373 whole entry): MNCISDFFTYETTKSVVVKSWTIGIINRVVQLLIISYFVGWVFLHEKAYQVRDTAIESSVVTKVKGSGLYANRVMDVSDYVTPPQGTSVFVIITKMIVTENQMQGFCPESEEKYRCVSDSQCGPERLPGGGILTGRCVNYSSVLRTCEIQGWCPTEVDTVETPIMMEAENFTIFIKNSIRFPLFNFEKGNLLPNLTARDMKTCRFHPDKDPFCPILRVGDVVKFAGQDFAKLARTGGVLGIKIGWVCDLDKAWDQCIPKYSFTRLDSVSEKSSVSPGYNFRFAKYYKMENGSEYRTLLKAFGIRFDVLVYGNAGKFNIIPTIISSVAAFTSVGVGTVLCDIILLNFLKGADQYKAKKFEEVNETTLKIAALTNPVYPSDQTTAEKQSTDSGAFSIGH
# experimentalProtocol: Evaluation of human P2X3 receptor inhibitory activity (Fluo-3 calcium fluorescence, FDSS 3000, ATP stimulation);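 also: stimulus was 50 nM ATP with fluorescence followed for 3 min, and the response per well was peak post-ATP fluorescence divided by the reading at measurement start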
# Format: cell-based
# experimentalSetup: C6BU-1 cells stably expressing human P2X3 receptor
parameter: pIC50
// pIC50 here means minus log10 of the molar concentration (mol/L)

Please look up its pIC50: CCOC(=O)CCn1c(=O)[nH]/c(=N\c2ccc(OC3CCC3)c(C)c2)n(Cc2ccc(C)cc2)c1=O 7.89

Also need CC1(C)OCC(Cn2c(=O)[nH]/c(=N\c3ccc(OC4CCC4)cc3)n(Cc3ccc(Cl)cc3)c2=O)CO1 , thanks. 8.52

Also need C=Cc1cc(/N=c2\[nH]c(=O)n(CCC(=O)O)c(=O)n2Cc2ccc(C)cc2)ccc1OC(C)C , thanks. 7.70

Also need CCn1c(=O)[nH]/c(=N\c2ccc(Oc3ccc(C(=O)OC)c(F)c3)cc2)n(Cc2ccc(Cl)cc2)c1=O , thanks. 8.52
